Assay: Biodistribution of 99mTc labelled complexes in rats (Tc brain bioassay, Example 64, Table I)
Type: in vivo, Female Sprague-Dawley rats
Assay conditions: rat, i.v. tail vein, 5 min post injection
Assay endpoint: Heart:blood
Could you keep your reply to the number by itself?

Look over these answered cases.
Compound	Assay endpoint	Reported measurement
CCCC[SH]1C(C)(C)C(=O)[N]2CC[N]3c4ccccc4[S][Tc]231=[O] (stereo not shown)	Heart:blood	3.67
CC1(C)C(=O)[N]2CC[N]3c4ccccc4[S][Tc]23(=[O])[SH]1CCCl (stereo not shown)	Heart:blood	3.97
CC1(C)C(=O)[N]2CC[N]3c4ccccc4[S][Tc]23(=[O])[SH]1CCO (stereo not shown)	Heart:blood	3.22
CCC[SH]1c2ccccc2[N]2CC[N]3C(=O)C(C)(C)[S][Tc]321=[O] (stereo not shown)	Heart:blood	1.88
CC1(C)C(=O)[N]2CC[N]3c4ccccc4[S][Tc]23(=[O])[SH]1CCC#N (stereo not shown)	Heart:blood	0.68

Look up and state reported Heart:blood for COC(=O)C[SH]1C(C)(C)C(=O)[N]2CC[N]3c4ccccc4[S][Tc]231=[O] (stereo not shown) 1.26
